# Target desc: human GPR39 receptor (Homo sapiens, UniProt O43194)
# Construct: PC3 Cells, Expressing the Endogenous Human GPR39 Receptor; endogenous in cells; host or cells: PC3 (human prostate adenocarcinoma) cells
# Sequence (O43194 whole entry): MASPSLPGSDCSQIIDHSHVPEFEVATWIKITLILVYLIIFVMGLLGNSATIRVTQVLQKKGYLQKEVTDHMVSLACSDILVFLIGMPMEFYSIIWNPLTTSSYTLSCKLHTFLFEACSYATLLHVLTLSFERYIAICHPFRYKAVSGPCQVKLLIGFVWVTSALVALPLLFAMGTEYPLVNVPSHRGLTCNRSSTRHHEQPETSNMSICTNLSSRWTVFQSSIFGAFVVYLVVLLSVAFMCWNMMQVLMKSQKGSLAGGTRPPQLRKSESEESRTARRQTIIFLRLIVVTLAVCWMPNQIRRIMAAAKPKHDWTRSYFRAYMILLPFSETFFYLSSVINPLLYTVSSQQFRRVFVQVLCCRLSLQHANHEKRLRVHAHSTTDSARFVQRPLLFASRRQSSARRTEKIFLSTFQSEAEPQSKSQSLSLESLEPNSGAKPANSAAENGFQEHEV
# Assay info: Intracellular calcium response (FLIPR, Calcium-6) in PC3 cells, antagonism of agonist C3 (TC-G 1008) at EC90
# Assay type: cell-based
# Test settings: functional pKi (-Log10Ki) by modified Cheng-Prusoff from IC50; PC3 cells endogenously expressing human GPR39; 30 μM ZnCl2; agonist C3 (TC-G 1008) at EC90 1.5 μM; read-out: fpKi activity
Measured metric: Ki

See these solved cases before continuing.
Cc1nnc(-c2ccc(C(=O)N3CCN(C)CC3c3ccccc3)c(N3CCC(C(C)C)C3)c2)[nH]1 (single isomer, unassigned) [Example 125d]    ≤ 50.1 nM
Cc1cc(C(=O)N2CCN(C)CC2c2ccccc2)c(N2CCCC2)cc1NC(=O)C1CC1 (centres unmarked) [Example 92]    > 6310 nM
Cc1ccc(-c2cc(NC(=O)C3CC3)ccc2C(=O)N2CCS(=O)(=O)CC2)s1 [Example 25]    316 to 1000 nM

Query: # value lookup — system human GPR39 receptor (Homo sapiens, UniProt O43194), readout Ki, item Cc1nnc(-c2ccc(C(=O)N3CCC(F)(F)CC3)c(-c3cccc(C(F)(F)F)n3)c2)[nH]1 [Example 75]
Result: ≤ 50.1 nM

Query: // repeat for O=C(Nc1ccc(C(=O)N2CCC3(COC3)C2)c(N2CCCC2)c1)C1CC1 [Example 3] and report
Result: 1260 to 6310 nM
